Assay: Stability of the compound in RPMI medium assessed as half life at 100 uM by HPLC analysis in presence of 10% human serum
Assay type: physicochemical
Details: RPMI medium with 10% human serum
Record form. Attribute: half-life at 100 µM. Fill in for each entry.

Reference set, count: 2
CCOC(=O)c1cn(C2CC2)c2cc(N3CCN(Cc4ccccc4)CC3)c(F)cc2c1=O    > 76 h
CCOC(=O)c1cn(C2CC2)c2cc(N3CCNCC3)c(F)cc2c1=O    > 76 h

# context switch: different compound, same half-life at 100 µM
input: Using the record for CCOC(=O)c1cn(C2CC2)c2cc(N3CCN(CCC45CC6CC(CC(C6)C4)C5)CC3)c(F)cc2c1=O , report its half-life at 100 µM.
output: > 76 h
